Data provenance: patent US20210171616A1

# target_entity: T1, PACAP27 (human, L at residue 27 modified by C-terminal amidation)
# T1 peptide: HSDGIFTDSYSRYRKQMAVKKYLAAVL
# assay_overview: cell-based or functional assay
measure_name: Inhibition (IC50) of PACAP27 (100 pM) induced cAMP in hPAC1 CHO-K1 cells
Give bare numbers, in pM.

Input line: GET /values?readout=Inhibition (IC50) of PACAP27 (100 pM) induced cAMP in hPAC1 CHO-K1 cells&item= Exemplified Antibody C (antibody, human IgG4 S228P, kappa, F234A L235A, V domains shown, IgG4, kappa light chain; also called Exemplified Ab C; Ab C) VH: EVQLLESGGGLVQPGGSLRLSCAASGFTFSSYYMSWVRQAPGKGLEWVSAISLSGGSTYYAESHKGRFTISRDNSKNTLYLQMNSLRAEDTAVYYCVREVGASTHNYYGMDVWGQGTMVTVSS VL: DIQMTQSPSSLSASVGDRVTITCRASQSIWRWLAWYQQKPGKAPKLLIHDASQLFEGVPSRFSGSGSGTDFTFTISSLQPEDIATYYCQQFDLLPLTFGGGTKVEIKR
Output line: 311
